Molecular target: F1F0-ATPase (Bos taurus)
measuredProperty: IC50

Worked cases, IC50 given:
In [3]: df
Out[3]:
                                  cpdsmiles  measuredproperty    measured
0  CC1(CN/C(=N/C(=O)c2ccc(F)c(F)c2)Nc2n[nH]c3ccccc23)COC1              IC50  5 to 16 µM
1  CCOCCN/C(=N/C(=O)c1ccc2nonc2c1)Nc1n[nH]c2cc(F)ccc12              IC50     > 16 µM
2  CCOCCNC(=NC(=O)c1cccc(Cl)c1)Nc1n[nH]c2cc(F)ccc12              IC50      < 5 µM

Query: Fill in the blank: the reported IC50 of CC(C)(C)NC(=NC(=O)c1cccc(Cl)c1)Nc1n[nH]c2cc(Cl)c(F)cc12 is ____.
Result: < 5 µM

Query: Fill in the blank: the reported IC50 of CCOCCN/C(=N/C(=O)c1ccc(Cl)cc1)Nc1n[nH]c2cc(F)ccc12 is ____.
Result: < 5 µM

Query: Fill in the blank: the reported IC50 of CC(C)(C)N/C(=N/C(=O)c1ccc(F)c(F)c1)Nc1n[nH]c2ccccc12 is ____.
Result: 5 to 16 µM

Origin of the recorded values: patent US9920012B2
